Source of measurements: PubChem BioAssay (NCI)

test system: HOP-62 NSCLC; test: NCI-60 one-dose screen, 48 h (100 = growth as untreated, 0 = no growth, -100 = all killed); conditions: 10 µM unless noted
About 83,000 compounds went through this panel and 20% of them were active in at least one assay; those are over-represented in the sample as a whole.
# label = bin(measured growth), where bins are lowest: < 60%; middle: ≥ 60% and < 90%; highest: ≥ 90%

[
  {
    "COMPOUND": "CC(C)(C)n1cc(-c2ccnc(NCCNS(=O)(=O)c3ccc(O)cc3)c2)c(-c2cccc(O)c2)n1",
    "TEST_SYSTEM": "HOP-62 NSCLC",
    "CLASS_ASSIGNMENT": "highest"
  },
  {
    "COMPOUND": "CC(=O)c1sc2sc(C(C)=O)c(C)c2c1C",
    "TEST_SYSTEM": "HOP-62 NSCLC",
    "CLASS_ASSIGNMENT": "middle"
  },
  {
    "COMPOUND": "Cc1ncc(C(=O)Nc2ccc(CN3CCN(C)CC3)c(C(F)(F)F)c2)cc1C#Cc1cnc(N)c2ncccc12",
    "TEST_SYSTEM": "HOP-62 NSCLC",
    "CLASS_ASSIGNMENT": "lowest"
  },
  {
    "COMPOUND": "COc1cccc(Nc2ncnc3cc(NC(=O)CCl)ccc23)c1",
    "TEST_SYSTEM": "HOP-62 NSCLC",
    "CLASS_ASSIGNMENT": "lowest"
  },
  {
    "COMPOUND": "CC1(C)OB(O)c2cc(-c3nc4ccc5[nH]ncc5c4c4c3CCCC4)ccc21",
    "TEST_SYSTEM": "HOP-62 NSCLC",
    "CLASS_ASSIGNMENT": "middle"
  },
  {
    "COMPOUND": "C=C1CC[C@@H]2[C@](C)(COC(C)=O)[C@H](OC(C)=O)CC[C@@]2(C)[C@@H]1CC(Nc1ccc(S(=O)(=O)NC(C)=O)cc1)C1=CCOC1=O (some centres undefined)",
    "TEST_SYSTEM": "HOP-62 NSCLC",
    "CLASS_ASSIGNMENT": "middle"
  },
  {
    "COMPOUND": "O=C(Nc1ncccc1OCc1ccccc1)NC1CCCCCC1",
    "TEST_SYSTEM": "HOP-62 NSCLC",
    "CLASS_ASSIGNMENT": "highest"
  },
  {
    "COMPOUND": "O=S(=O)(NCCCNc1nccc(-c2c(-c3cccc(F)c3)nc3occn23)n1)c1ccc(F)cc1",
    "TEST_SYSTEM": "HOP-62 NSCLC",
    "CLASS_ASSIGNMENT": "middle"
  }
]
